The entries below are paired with their reported pEC50.
molecular target: Src enzyme (Homo sapiens (Human), UniProt P12931); assay: Src enzyme activity (IMAP fluorescence polarization assay); details: read-out: EC50 Src activity values; IMAP, 60 min pre-incubation, 4 μM ATP
Sequence (P12931 whole entry, looked up): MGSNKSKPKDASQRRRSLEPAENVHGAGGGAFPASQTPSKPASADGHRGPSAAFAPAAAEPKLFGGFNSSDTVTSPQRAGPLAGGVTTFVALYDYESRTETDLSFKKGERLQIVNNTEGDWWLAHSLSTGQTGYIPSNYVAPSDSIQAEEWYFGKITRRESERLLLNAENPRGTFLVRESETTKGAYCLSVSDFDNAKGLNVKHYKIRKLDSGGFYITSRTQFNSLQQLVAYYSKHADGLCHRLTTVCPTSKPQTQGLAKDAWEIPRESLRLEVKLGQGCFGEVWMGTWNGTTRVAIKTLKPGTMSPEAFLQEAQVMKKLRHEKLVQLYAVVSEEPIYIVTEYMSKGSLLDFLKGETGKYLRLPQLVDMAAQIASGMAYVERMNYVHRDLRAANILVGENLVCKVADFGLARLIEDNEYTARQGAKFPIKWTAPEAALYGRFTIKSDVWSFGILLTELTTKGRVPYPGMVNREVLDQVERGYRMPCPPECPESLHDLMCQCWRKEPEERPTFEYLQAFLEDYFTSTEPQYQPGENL
pEC50: −log10 of the molar value.
endpoint.label: pEC50

> print(dat)
                                 smiles.code  reported.measurement
 1  CC#CC(=O)N1CCCC[C@H]1c1nc(-c2ccc(C(=O)Nc3nccc(C)n3)cc2)c2c(N)nccn12                ≤ 6.00
 2  Cc1ccnc(NC(=O)c2ccc(-c3nc([C@@H]4CCCN4C(=O)/C=C/CN(C)C)n4ccnc(N)c34)cc2)c1                ≤ 6.00
 3  CCc1cnc(NC(=O)c2ccc(-c3nc([C@@H]4CCCCN4C(=O)c4ccnc(Cl)n4)n4ccnc(N)c34)cc2)s1                ≤ 6.00
 4  CC(C)c1ccnc(NC(=O)c2ccc(-c3nc([C@@H]4CCCN4C(=O)c4ccnc(Cl)n4)n4ccnc(N)c34)cc2)c1                ≤ 6.00
 5  CC#CC(=O)N1CCCC[C@H]1c1nc(-c2ccc(C(=O)Nc3cc(CCC)ccn3)c(OC)c2)c2c(N)nccn12                ≤ 6.00
 6  COC/C=C/C(=O)N1CCC[C@H]1c1nc(-c2ccc(C(=O)Nc3cc(OC)ccn3)cc2)c2c(N)nccn12                ≤ 6.00
 7  CN(C)C/C=C/C(=O)N1CCC[C@H]1c1nc(-c2ccc(C(=O)Nc3ccccn3)cc2)c2c(N)nccn12                ≤ 6.00
 8  COC/C=C/C(=O)N1CCCC[C@H]1c1nc(-c2ccc(C(=O)Nc3ccncn3)cc2)c2c(N)nccn12                ≤ 6.00
 9  CC#CC(=O)N1CCCC[C@H]1c1nc(-c2ccc(C(=O)Nc3cc(CCC)ccn3)c(F)c2)c2c(N)nccn12                ≤ 6.00
10  C=CC(=O)N1CCC[C@H]1c1nc(-c2ccc(C(=O)Nc3ccccn3)c(F)c2)c2c(N)nccn12                ≤ 6.00
11  CC#CC(=O)NCc1nc(-c2ccc(C(=O)Nc3ccccn3)cc2)c2c(N)nccn12                ≤ 6.00
12  CCCc1ccnc(NC(=O)c2ccc(-c3nc([C@@H]4CCCCN4C(=O)/C=C/CN(C)C)n4ccnc(N)c34)cc2OC)c1                ≤ 6.00
13  Nc1nccn2c([C@@H]3CCCCN3C(=O)c3ccnc(Cl)n3)nc(-c3ccc(C(=O)Nc4ncccn4)cc3)c12                ≤ 6.00
14  CC#CC(=O)N1CCC[C@H]1c1nc(-c2ccc(C(=O)Nc3nc4c(s3)CCCC4)cc2)c2c(N)nccn12                ≤ 6.00

###

target: Btk enzyme (His-Btk) (Homo sapiens (Human), UniProt Q06187); assay: Btk enzyme activity (IMAP fluorescence polarization assay)
Sequence (Q06187 whole entry): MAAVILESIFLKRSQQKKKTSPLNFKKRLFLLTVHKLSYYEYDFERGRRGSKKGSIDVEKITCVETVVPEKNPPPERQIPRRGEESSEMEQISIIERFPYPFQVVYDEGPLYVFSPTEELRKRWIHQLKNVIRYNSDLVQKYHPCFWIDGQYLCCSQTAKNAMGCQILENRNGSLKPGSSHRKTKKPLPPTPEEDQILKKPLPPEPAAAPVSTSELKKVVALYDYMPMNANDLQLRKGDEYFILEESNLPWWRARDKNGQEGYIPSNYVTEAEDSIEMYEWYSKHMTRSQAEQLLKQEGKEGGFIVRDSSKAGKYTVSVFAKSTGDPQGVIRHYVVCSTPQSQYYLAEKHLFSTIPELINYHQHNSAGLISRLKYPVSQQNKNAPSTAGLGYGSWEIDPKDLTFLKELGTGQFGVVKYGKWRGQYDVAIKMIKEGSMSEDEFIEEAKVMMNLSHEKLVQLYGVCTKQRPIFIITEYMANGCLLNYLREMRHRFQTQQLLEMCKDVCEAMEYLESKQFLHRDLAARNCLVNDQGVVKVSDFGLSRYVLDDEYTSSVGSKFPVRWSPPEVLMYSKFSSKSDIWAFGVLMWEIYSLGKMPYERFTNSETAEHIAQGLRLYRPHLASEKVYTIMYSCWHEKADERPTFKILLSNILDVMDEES
endpoint.label: EC50

> print(dat)
                                    compound  reported.measurement
 1  C[C@H](NC(=O)c1ccnc(Cl)n1)c1nc(-c2ccc(C(=O)Nc3ccccn3)cc2)c2c(N)nccn12 [Example 105]          10 to 100 nM
 2  Nc1nccn2c([C@@H]3CCCN3C(=O)/C=C/c3ccccc3)nc(-c3ccc(C(=O)Nc4ccccn4)cc3)c12 [Example 104]        100 to 1000 nM
 3  COC/C=C/C(=O)N1CCC[C@H]1c1nc(-c2ccc(C(=O)Nc3ccccn3)cc2)c2c(N)nccn12 [Example 4]          10 to 100 nM
 4  CC#CC(=O)N1CCC[C@H]1c1nc(-c2ccc(C(=O)Nc3cc(N4CCCC4)ccn3)cc2)c2c(N)nccn12 [Example 96]          10 to 100 nM
 5  CC#CC(=O)N1CCCC[C@H]1c1nc(-c2ccc(C(=O)Nc3nccc(C)n3)cc2)c2c(N)nccn12 [Example 89]          10 to 100 nM
 6  CC#CC(=O)N1CCC[C@H]1c1nc(-c2ccc(C(=O)Nc3nccs3)cc2)c2c(N)nccn12 [Example 60]          10 to 100 nM
 7  CN(C)C/C=C/C(=O)N1CCC[C@H]1c1nc(-c2ccc(C(=O)Nc3cc(F)ccn3)cc2)c2c(N)nccn12 [Example 7]          10 to 100 nM
 8  COC/C=C/C(=O)N1CCCC[C@H]1c1nc(-c2ccc(C(=O)Nc3ccccn3)cc2C)c2c(N)nccn12 [Example 85]        100 to 1000 nM
 9  CC#CC(=O)N1CCCC[C@H]1c1nc(-c2ccc(C(=O)Nc3ccon3)cc2)c2c(N)nccn12 [Example 24]          10 to 100 nM
10  Nc1nccn2c([C@@H]3CCCN3C(=O)c3ccnc(Cl)n3)nc(-c3ccc(C(=O)Nc4ccccn4)cc3)c12 [Example 5]          10 to 100 nM
11  CCCc1ccnc(NC(=O)c2ccc(-c3nc([C@@H]4CCCCN4C(=O)/C=C/COC)n4ccnc(N)c34)cc2F)c1 [Example 114]          10 to 100 nM
12  COC/C=C/C(=O)N1CCC[C@H]1c1nc(-c2ccc(C(=O)Nc3ccccn3)c(OC)c2)c2c(N)nccn12 [Example 103]          10 to 100 nM
13  COC/C=C/C(=O)N1CCC[C@H]1c1nc(-c2ccc(C(=O)Nc3cc(C)ccn3)cc2)c2c(N)nccn12 [Example 57]          10 to 100 nM
14  CC#CC(=O)N1CCC[C@H]1c1nc(-c2ccc(C(=O)Nc3ccccn3)c(F)c2)c2c(N)nccn12 [Example 50]          10 to 100 nM

###

molecular target: FynT enzyme (Homo sapiens (Human)); assay: FynT enzyme activity (IMAP fluorescence polarization assay); conditions: 60 min pre-incubation, 0.2 μM ATP
Sequence (P06241 other isoform, or with tags, fused parts or gaps): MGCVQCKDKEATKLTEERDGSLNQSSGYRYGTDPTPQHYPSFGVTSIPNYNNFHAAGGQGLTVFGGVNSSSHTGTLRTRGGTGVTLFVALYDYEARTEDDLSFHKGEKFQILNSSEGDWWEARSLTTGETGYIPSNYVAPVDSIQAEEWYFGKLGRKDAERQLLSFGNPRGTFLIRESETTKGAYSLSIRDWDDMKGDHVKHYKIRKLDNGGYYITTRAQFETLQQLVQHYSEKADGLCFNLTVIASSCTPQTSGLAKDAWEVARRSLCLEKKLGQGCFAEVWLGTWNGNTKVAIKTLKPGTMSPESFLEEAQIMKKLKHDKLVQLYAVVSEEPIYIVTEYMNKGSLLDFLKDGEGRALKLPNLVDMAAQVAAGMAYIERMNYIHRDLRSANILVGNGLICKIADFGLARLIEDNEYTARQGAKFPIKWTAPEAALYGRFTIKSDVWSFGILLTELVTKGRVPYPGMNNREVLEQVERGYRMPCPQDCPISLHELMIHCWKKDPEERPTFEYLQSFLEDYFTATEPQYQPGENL
Recorded EC50 for the following compounds
endpoint.label: EC50

> print(dat)
                                    compound  endpoint.label  reported.measurement
 1  COC/C=C/C(=O)N1CCC[C@H]1c1nc(-c2ccc(C(=O)Nc3cc(C#N)ccn3)cc2)c2c(N)nccn12            EC50             ≥ 1000 nM
 2  C=CC(=O)N1CCC[C@H]1c1nc(-c2ccc(C(=O)Nc3ccccn3)c(F)c2)c2c(N)nccn12            EC50             ≥ 1000 nM
 3  CCCc1ccnc(NC(=O)c2ccc(-c3nc([C@H](C)N(C)C(=O)/C=C/COC)n4ccnc(N)c34)cc2)c1            EC50             ≥ 1000 nM
 4  COC/C=C/C(=O)N1CCCC[C@H]1c1nc(-c2ccc(C(=O)Nc3ccon3)cc2)c2c(N)nccn12            EC50             ≥ 1000 nM
 5  C=CC(=O)N[C@@H](C)c1nc(-c2ccc(C(=O)Nc3ccccn3)cc2)c2c(N)nccn12            EC50             ≥ 1000 nM
 6  Nc1nccn2c([C@@H]3CCCCN3C(=O)c3ccnc(Cl)n3)nc(-c3ccc(C(=O)Nc4cccnn4)cc3)c12            EC50             ≥ 1000 nM
 7  C=CC(=O)N1CCCC[C@H]1c1nc(-c2ccc(C(=O)Nc3cc(C(F)(F)F)ccn3)cc2)c2c(N)nccn12            EC50             ≥ 1000 nM
 8  C=CC(=O)NCc1nc(-c2ccc(C(=O)Nc3ccccn3)cc2)c2c(N)nccn12            EC50             ≥ 1000 nM
 9  Nc1nccn2c([C@@H]3CCCCN3C(=O)c3ccnc(Cl)n3)nc(-c3ccc(C(=O)Nc4cc(C(F)(F)F)ccn4)cc3)c12            EC50             ≥ 1000 nM
10  CC#CC(=O)N1CCCC[C@H]1c1nc(-c2ccc(C(=O)Nc3ccncn3)cc2)c2c(N)nccn12            EC50             ≥ 1000 nM
11  CN(C)C/C=C/C(=O)NCc1nc(-c2ccc(C(=O)Nc3ccccn3)cc2)c2c(N)nccn12            EC50             ≥ 1000 nM
12  CC#CC(=O)N1CCCC[C@H]1c1nc(-c2ccc(C(=O)Nc3cc(C(F)(F)F)ccn3)cc2)c2c(N)nccn12            EC50             ≥ 1000 nM
13  C=CC(=O)N1CCCCCC1c1nc(-c2ccc(C(=O)Nc3ccccn3)cc2)c2c(N)nccn12 (stereo not shown)            EC50             ≥ 1000 nM
14  CCCc1ccnc(NC(=O)c2ccc(-c3nc([C@@H]4CCCCN4C(=O)c4ccnc(Cl)n4)n4ccnc(N)c34)cc2)c1            EC50             ≥ 1000 nM
15  Nc1nccn2c([C@@H]3CCCN3C(=O)/C=C/CN3CCCC3)nc(-c3ccc(C(=O)Nc4ccccn4)cc3)c12            EC50             ≥ 1000 nM
16  CC#CC(=O)N1CCCC[C@H]1c1nc(-c2ccc(C(=O)Nc3ccccn3)cc2C)c2c(N)nccn12            EC50             ≥ 1000 nM
17  COC/C=C/C(=O)N1CCC[C@H]1c1nc(-c2ccc(C(=O)Nc3cc(C(F)(F)F)ccn3)cc2)c2c(N)nccn12            EC50             ≥ 1000 nM
18  CC#CC(=O)N1CCC[C@H]1c1nc(-c2ccc(C(=O)Nc3cc(OC)ccn3)cc2)c2c(N)nccn12            EC50             ≥ 1000 nM
19  CC#CC(=O)N1CCC[C@H]1c1nc(-c2ccc(C(=O)Nc3cc(C(C)C)ccn3)cc2)c2c(N)nccn12            EC50             ≥ 1000 nM
20  C=CC(=O)N1CCC[C@H]1c1nc(-c2ccc(C(=O)Nc3cc(C#N)ccn3)cc2)c2c(N)nccn12            EC50             ≥ 1000 nM
21  COC/C=C/C(=O)N1CCC[C@H]1c1nc(-c2ccc(C(=O)Nc3cc(C)ccn3)cc2)c2c(N)nccn12            EC50             ≥ 1000 nM
22  CC#CC(=O)N1CCCC[C@H]1c1nc(-c2ccc(C(=O)Nc3ncc(CC)s3)cc2)c2c(N)nccn12            EC50             ≥ 1000 nM
23  Cc1ccnc(NC(=O)c2ccc(-c3nc([C@@H]4CCCN4C(=O)c4ccnc(Cl)n4)n4ccnc(N)c34)cc2)c1            EC50             ≥ 1000 nM
24  COC/C=C/C(=O)N1CCCC[C@H]1c1nc(-c2ccc(C(=O)Nc3ncccn3)cc2)c2c(N)nccn12            EC50             ≥ 1000 nM
25  CN(C)C/C=C/C(=O)N1CCC[C@H]1c1nc(-c2ccc(C(=O)Nc3ccccn3)cc2)c2c(N)nccn12            EC50             ≥ 1000 nM
26  Nc1nccn2c([C@@H]3CCCCN3C(=O)c3ccnc(Cl)n3)nc(-c3ccc(C(=O)Nc4cc(F)ccn4)cc3)c12            EC50             ≥ 1000 nM
27  C[C@H](NC(=O)c1ccnc(Cl)n1)c1nc(-c2ccc(C(=O)Nc3ccccn3)cc2)c2c(N)nccn12            EC50             ≥ 1000 nM
28  CN(C)C/C=C/C(=O)N1CCCC[C@H]1c1nc(-c2ccc(C(=O)Nc3ccccn3)cc2)c2c(N)nccn12            EC50             ≥ 1000 nM

Values compiled from patent US9758524B2.
